MEASURED_ON: rKir4.1 (Rattus norvegicus, UniProt P49655)
Sequence (P49655 whole entry): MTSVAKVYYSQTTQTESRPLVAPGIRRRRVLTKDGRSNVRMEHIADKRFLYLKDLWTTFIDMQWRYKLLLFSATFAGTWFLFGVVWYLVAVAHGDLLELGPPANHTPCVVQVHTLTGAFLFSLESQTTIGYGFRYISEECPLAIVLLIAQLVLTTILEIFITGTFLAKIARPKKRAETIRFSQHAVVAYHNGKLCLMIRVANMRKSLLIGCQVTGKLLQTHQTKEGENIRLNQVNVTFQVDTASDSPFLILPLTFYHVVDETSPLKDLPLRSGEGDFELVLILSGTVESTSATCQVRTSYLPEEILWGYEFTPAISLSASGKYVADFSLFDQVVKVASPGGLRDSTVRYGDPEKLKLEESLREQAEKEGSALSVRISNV
PROTOCOL: whole cell patch clamp, Kir4.1
OUTCOME_MEASURE: IC50 (µM)
Please reply with the bare figure in µM and do not write the unit itself.

Name the recorded IC50 for COc1ccc(CNCc2cccc3ccccc23)cc1 .
76

* * *

MEASURED_ON: Kir1.1 N171D (Rattus norvegicus, UniProt P35560, N171D)
Sequence (P35560 whole entry N171D): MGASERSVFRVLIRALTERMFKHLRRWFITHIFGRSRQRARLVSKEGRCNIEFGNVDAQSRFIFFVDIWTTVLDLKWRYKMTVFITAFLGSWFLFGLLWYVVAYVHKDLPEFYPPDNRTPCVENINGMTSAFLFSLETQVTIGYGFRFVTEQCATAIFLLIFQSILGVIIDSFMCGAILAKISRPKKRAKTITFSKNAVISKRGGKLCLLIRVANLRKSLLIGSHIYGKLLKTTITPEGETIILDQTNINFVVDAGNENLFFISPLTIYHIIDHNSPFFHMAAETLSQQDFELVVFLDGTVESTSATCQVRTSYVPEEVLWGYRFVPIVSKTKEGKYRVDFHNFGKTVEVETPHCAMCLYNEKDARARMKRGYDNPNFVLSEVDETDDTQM
PROTOCOL: patch clamp, Kir1.1 N171D mutant
OUTCOME_MEASURE: IC50
# answer = value followed by unit

Name the recorded IC50 for COc1ccc(CNCc2cccc3ccccc23)cc1 .
83.6 µM

* * *

MEASURED_ON: Kir1.1 N171D/C175I (Rattus norvegicus, UniProt P35560, C175I/N171D)
Sequence (P35560 whole entry N171D/C175I): as the sequence (P35560 whole entry N171D) above, with C175I counted along it
PROTOCOL: patch clamp, Kir1.1 N171D/C175I mutant
OUTCOME_MEASURE: pIC50
Worth noting: pIC50 values are minus log10 of concentrations stated in mol/L.

Request body: readout pIC50, system Kir1.1 N171D/C175I (Rattus norvegicus, UniProt P35560, C175I/N171D), query COc1ccc(CNCc2cccc3ccccc23)cc1 . Return the value.
4.19

* * *

MEASURED_ON: hKir2.6 (Homo sapiens)
Sequence (B7U540 whole entry): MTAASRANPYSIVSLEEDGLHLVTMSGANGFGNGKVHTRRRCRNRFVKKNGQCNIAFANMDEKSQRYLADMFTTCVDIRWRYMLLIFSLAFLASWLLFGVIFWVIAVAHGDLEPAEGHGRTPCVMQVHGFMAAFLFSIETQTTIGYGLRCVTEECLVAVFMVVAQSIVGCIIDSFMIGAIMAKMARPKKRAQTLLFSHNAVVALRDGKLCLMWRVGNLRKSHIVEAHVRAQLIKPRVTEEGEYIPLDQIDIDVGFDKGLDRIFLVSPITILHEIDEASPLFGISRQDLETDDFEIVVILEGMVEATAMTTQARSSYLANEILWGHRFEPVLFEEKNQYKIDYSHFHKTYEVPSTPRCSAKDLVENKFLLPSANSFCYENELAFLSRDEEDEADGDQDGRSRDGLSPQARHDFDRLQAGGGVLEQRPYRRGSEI
PROTOCOL: whole cell patch clamp, Kir2.6
OUTCOME_MEASURE: IC50 (nM)
Please reply with the bare figure in nM and do not write the unit itself.

Name the recorded IC50 for COc1ccc(CNCc2cccc3ccccc23)cc1 .
2800

* * *

MEASURED_ON: Kir2.1 (Mus musculus, UniProt P35561)
Sequence (P35561 whole entry): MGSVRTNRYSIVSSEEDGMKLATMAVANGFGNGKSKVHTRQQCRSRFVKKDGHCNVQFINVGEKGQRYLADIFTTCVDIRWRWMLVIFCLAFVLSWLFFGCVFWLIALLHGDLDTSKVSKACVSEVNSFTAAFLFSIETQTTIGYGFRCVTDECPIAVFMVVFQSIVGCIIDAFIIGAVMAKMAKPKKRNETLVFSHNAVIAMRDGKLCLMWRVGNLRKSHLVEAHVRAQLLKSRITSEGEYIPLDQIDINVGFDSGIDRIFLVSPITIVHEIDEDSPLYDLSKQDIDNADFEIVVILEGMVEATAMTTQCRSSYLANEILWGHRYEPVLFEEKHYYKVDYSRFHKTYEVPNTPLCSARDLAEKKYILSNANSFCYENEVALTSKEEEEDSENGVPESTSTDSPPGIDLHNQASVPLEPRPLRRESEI
PROTOCOL: whole cell
EXPERIMENTAL_CONTEXT: read-out: IC50 Kir2.1; pH 8.5, manual patch clamp
Reported pIC50 values for the following compounds.
Worth noting: pIC50 values are minus log10 of concentrations stated in mol/L.

Worked set:
[
  {
    "COMPOUND": "COc1ccc(CNCc2ccc(Cl)cc2)cc1 [14a]",
    "pIC50": 6.11
  },
  {
    "COMPOUND": "COc1ccc(CNCc2ccc(Cl)cc2Cl)cc1 [13c]",
    "pIC50": 5.41
  },
  {
    "COMPOUND": "COc1ccc(CNCc2ccccc2C)cc1 [14e]",
    "pIC50": 5.29
  },
  {
    "COMPOUND": "COc1ccc(CNCc2cccc(Cl)c2)cc1 [14b]",
    "pIC50": 5.97
  },
  {
    "COMPOUND": "COc1ccc(CNCc2ccc(C(C)(C)C)cc2)cc1 [14d]",
    "pIC50": 5.86
  }
]

We next turn to a different compound, shown below.
Request body: readout pIC50, system Kir2.1 (Mus musculus, UniProt P35561), query COc1ccc(CNCc2ccccc2Cl)cc1 [14j] . Return the value.
4.86

All values here come from paper PMC3177608.
